Each entry below carries its recorded selectivity ratio.
Assay Explanation: Selectivity index, ratio of CC50 for cytotoxicity in human HepaRG cells assessed as reduction in cell viability to EC50 for antiviral activity against HBV in human HepaRG cells assessed as reduction in viral replication
Assay type: toxicity, cell-based
Condition Label: read-out: Ratio CC50/EC50

# Compound Structure String, selectivity ratio
records = [
    ("Nc1cc(F)c(S(=O)(=O)NC2COC2)cc1C(=O)Nc1ccc(F)c(C(F)F)c1", "> 100"),
    ("O=C(Nc1cc(F)c(F)c(F)c1)c1ccc(F)c(S(=O)(=O)N2CCC(O)CC2)c1", 6.15),
    ("Nc1cc(F)c(S(=O)(=O)N[C@H]2CNC2=O)cc1C(=O)Nc1ccc(F)c(C(F)F)c1", "> 182"),
]

* * *

Reported values of pIC50 for individual entries
Assay Explanation: Cytotoxicity in HFL1 cells
Assay type: toxicity, cell-based
Condition Label: human
pIC50: −log10 of the molar value.

# Compound Structure String, pIC50
rows = [
    ("Nc1cc(F)c(S(=O)(=O)N[C@H]2CNC2=O)cc1C(=O)Nc1ccc(F)c(C(F)F)c1", "< 4.00"),
    ("Nc1cc(F)c(S(=O)(=O)NC2COC2)cc1C(=O)Nc1ccc(F)c(C(F)F)c1", "< 4.00"),
]

* * *

Assay Explanation: Metabolic stability in mouse liver microsomes assessed as compound remaining measured after 30 mins
Assay type: ADME, Microsome
Condition Label: read-out: Stability
remaining at 0.5 h strictly less than 1% = TRUE. Otherwise FALSE.

# Compound, Label
data = [
    ("Nc1cc(F)c(S(=O)(=O)NCC2COC2)cc1C(=O)Nc1ccc(F)c(C(F)F)c1", "FALSE"),
    ("CC1(CNS(=O)(=O)c2cc(C(=O)Nc3ccc(F)c(C(F)F)c3)c(N)cc2F)COC1", "FALSE"),
    ("Nc1cc(F)c(S(=O)(=O)N[C@H]2CNC2=O)cc1C(=O)Nc1ccc(F)c(C(F)F)c1", "FALSE"),
    ("Nc1cc(F)c(S(=O)(=O)NC2COC2)cc1C(=O)Nc1ccc(F)c(C(F)F)c1", "FALSE"),
    ("CC(C)(NS(=O)(=O)c1cc(C(=O)Nc2ccc(F)c(C(F)F)c2)c(N)cc1F)C1COC1", "TRUE"),
    ("Nc1cc(F)c(S(=O)(=O)N2CC3COCC3C2)cc1C(=O)Nc1ccc(F)c(C(F)F)c1 (stereo unspecified)", "TRUE"),
]

* * *

Assay Explanation: AUC (0 to infinity) in male mouse at 20 mg/kg, po
Type: ADME, organism-based
Condition Label: in vivo
Reported AUC(0-inf) values are given for each entry in this list.

# Compound Structure String, AUC(0-inf), ng·h/mL
records = [
    ("Nc1cc(F)c(S(=O)(=O)N[C@H]2CNC2=O)cc1C(=O)Nc1ccc(F)c(C(F)F)c1", 1600),
    ("Nc1cc(F)c(S(=O)(=O)NC2COC2)cc1C(=O)Nc1ccc(F)c(C(F)F)c1", 280),
]

* * *

Catalogue of compounds with associated CC50
Assay Explanation: Cytotoxicity in human HepaRG cells assessed as reduction in cell viability
Type: toxicity, cell-based

# Compound Structure String, CC50
measured = [
    ("Nc1cc(F)c(S(=O)(=O)NC2COC2)cc1C(=O)Nc1ccc(F)c(C(F)F)c1", "> 100 µM"),
    ("Nc1cc(F)c(S(=O)(=O)N[C@H]2CNC2=O)cc1C(=O)Nc1ccc(F)c(C(F)F)c1", "> 100 µM"),
    ("O=C(Nc1cc(F)c(F)c(F)c1)c1ccc(F)c(S(=O)(=O)N2CCC(O)CC2)c1", "23 µM"),
]

* * *

Assay Explanation: Plasma protein binding in mouse
Assay type: ADME, cell-free
Condition Label: read-out: PPB (converted)
As shown below, each of these compounds has a reported fraction unbound value.

# Compound Structure String, fraction unbound
data = [
    ("Nc1cc(F)c(S(=O)(=O)NC2COC2)cc1C(=O)Nc1ccc(F)c(C(F)F)c1", 0.143),
    ("Nc1cc(F)c(S(=O)(=O)N[C@H]2CNC2=O)cc1C(=O)Nc1ccc(F)c(C(F)F)c1", 0.0555),
]

* * *

# Lookup of reported AUC(0-t) keyed by entry
Assay Explanation: AUClast in male mouse at 20 mg/kg, iv
Format: ADME, organism-based
Condition Label: in vivo

# Compound Structure String, AUC(0-t) [ng·h/mL]
data = [
    ("Nc1cc(F)c(S(=O)(=O)N[C@H]2CNC2=O)cc1C(=O)Nc1ccc(F)c(C(F)F)c1", 6880),
    ("Nc1cc(F)c(S(=O)(=O)NC2COC2)cc1C(=O)Nc1ccc(F)c(C(F)F)c1", 4610),
]

* * *

Assay Explanation: Half life in male mouse at 20 mg/kg, po
Format: ADME, organism-based
Condition Label: in vivo

# Compound Structure String, Unit Info, half-life
measured = [
    ("Nc1cc(F)c(S(=O)(=O)NC2COC2)cc1C(=O)Nc1ccc(F)c(C(F)F)c1", "h", 0.87),
    ("Nc1cc(F)c(S(=O)(=O)N[C@H]2CNC2=O)cc1C(=O)Nc1ccc(F)c(C(F)F)c1", "h", 5.52),
]

* * *

Assay Explanation: Selectivity index, ratio of CC50 for cytotoxicity in human HepG2-hNTCP cells assessed as reduction in cell viability to EC50 for antiviral activity against HBV in human HepG2-hNTCP cells assessed as reduction in viral replication
Format: toxicity, cell-based
Condition Label: read-out: Ratio CC50/EC50
Here the recorded selectivity ratio is given for each entry.

# Compound Structure String, Lt Gt Eq, selectivity ratio
measured = [
    ("Nc1cc(F)c(S(=O)(=O)NC2COC2)cc1C(=O)Nc1ccc(F)c(C(F)F)c1", "=", 3160),
    ("Nc1cc(F)c(S(=O)(=O)N[C@H]2CNC2=O)cc1C(=O)Nc1ccc(F)c(C(F)F)c1", ">", 909),
    ("O=C(Nc1cc(F)c(F)c(F)c1)c1ccc(F)c(S(=O)(=O)N2CCC(O)CC2)c1", "=", 75.7),
]

* * *

Assay Explanation: Metabolic stability in human liver microsomes assessed as compound remaining measured after 30 mins
Assay type: ADME, Microsome
Condition Label: read-out: Stability
The following compounds are listed with their measured remaining at 0.5 h values.
Observed Property: remaining at 0.5 h

# Compound, Observed Property, Result
data = [
    ("CC1(CNS(=O)(=O)c2cc(C(=O)Nc3ccc(F)c(C(F)F)c3)c(N)cc2F)COC1", "remaining at 0.5 h", "23.6%"),
    ("CC(C)(NS(=O)(=O)c1cc(C(=O)Nc2ccc(F)c(C(F)F)c2)c(N)cc1F)C1COC1", "remaining at 0.5 h", "17.2%"),
    ("Nc1cc(F)c(S(=O)(=O)NC2COC2)cc1C(=O)Nc1ccc(F)c(C(F)F)c1", "remaining at 0.5 h", "> 100%"),
    ("Nc1cc(F)c(S(=O)(=O)N[C@H]2CNC2=O)cc1C(=O)Nc1ccc(F)c(C(F)F)c1", "remaining at 0.5 h", "66.9%"),
    ("Nc1cc(F)c(S(=O)(=O)NCC2COC2)cc1C(=O)Nc1ccc(F)c(C(F)F)c1", "remaining at 0.5 h", "56.2%"),
    ("Nc1cc(F)c(S(=O)(=O)N2CC3COCC3C2)cc1C(=O)Nc1ccc(F)c(C(F)F)c1 (stereo unspecified)", "remaining at 0.5 h", "0.76%"),
]

* * *

Assay Explanation: Oral bioavailability in male mouse at 20 mg/kg
Type: ADME, organism-based
Condition Label: in vivo
Observed Property: bioavailability (%)

# Compound Structure String, Unit Info, Numeric Value
measured = [
    ("Nc1cc(F)c(S(=O)(=O)N[C@H]2CNC2=O)cc1C(=O)Nc1ccc(F)c(C(F)F)c1", "%", 21.9),
    ("Nc1cc(F)c(S(=O)(=O)NC2COC2)cc1C(=O)Nc1ccc(F)c(C(F)F)c1", "%", 5.89),
]

* * *

Listed below: Tmax values for each entry.
Assay Explanation: Tmax in male mouse at 20 mg/kg, po
Format: ADME, organism-based
Condition Label: in vivo

# Compound Structure String, Tmax [min]
rows = [
    ("Nc1cc(F)c(S(=O)(=O)NC2COC2)cc1C(=O)Nc1ccc(F)c(C(F)F)c1", 25.2),
    ("Nc1cc(F)c(S(=O)(=O)N[C@H]2CNC2=O)cc1C(=O)Nc1ccc(F)c(C(F)F)c1", 19.8),
]

* * *

Assay Explanation: Cytotoxicity in human HepG2.2.15 cells assessed as reduction in cell viability
Assay type: toxicity, cell-based, HepG2 2.2.15
Observed Property: log10 of CC50 (log10 of the value in µM)

# Molecule, Observed Property, Numeric Value
measured = [
    ("Nc1cc(F)c(S(=O)(=O)NCC2COC2)cc1C(=O)Nc1ccc(F)c(C(F)F)c1", "log10 of CC50", 2.18),
    ("CC(C)NS(=O)(=O)c1cc(C(=O)Nc2ccc(F)c(F)c2)c(N)cc1F", "log10 of CC50", 0.97),
    ("Nc1cc(F)c(S(=O)(=O)NC2CCOC2)cc1C(=O)Nc1ccc(F)c(F)c1 (stereo not given)", "log10 of CC50", 1.42),
    ("Nc1cc(F)c(S(=O)(=O)NC2CCNC2)cc1C(=O)Nc1ccc(F)c(F)c1 (stereo not given)", "log10 of CC50", 2.04),
    ("Nc1cc(F)c(S(=O)(=O)N2CCNCC2)cc1C(=O)Nc1ccc(F)c(F)c1", "log10 of CC50", 1.50),
    ("Nc1cc(F)c(S(=O)(=O)N2CCOCC2)cc1C(=O)Nc1ccc(F)c(C(F)F)c1", "log10 of CC50", 2.83),
    ("C[C@@H](NS(=O)(=O)c1cc(C(=O)Nc2ccc(F)c(C(F)F)c2)c(N)cc1F)C1COC1", "log10 of CC50", 2.27),
    ("C[C@@H](CO)NS(=O)(=O)c1cc(C(=O)Nc2ccc(F)c(F)c2)c(N)cc1F", "log10 of CC50", 2.19),
    ("Nc1cc(F)c(S(=O)(=O)N2CC3(COC3)C2)cc1C(=O)Nc1ccc(F)c(F)c1", "log10 of CC50", 2.23),
    ("Nc1cc(F)c(S(=O)(=O)NC2CCOCC2)cc1C(=O)Nc1ccc(F)c(F)c1", "log10 of CC50", 1.47),
    ("Nc1cc(F)c(S(=O)(=O)N[C@H]2CNC2=O)cc1C(=O)Nc1ccc(F)c(C(F)F)c1", "log10 of CC50", 2.24),
    ("CC1(CNS(=O)(=O)c2cc(C(=O)Nc3ccc(F)c(C(F)F)c3)c(N)cc2F)COC1", "log10 of CC50", 2.93),
    ("Nc1cc(F)c(S(=O)(=O)NC2CCC2)cc1C(=O)Nc1ccc(F)c(C(F)F)c1", "log10 of CC50", 1.36),
    ("Cc1cc(NC(=O)c2cc(S(=O)(=O)N3CCOCC3)c(F)cc2N)ccc1F", "log10 of CC50", 2.64),
]
